# Tested on: Enterococcus faecalis
# Procedure Text: Antibacterial activity against Enterococcus faecalis ATCC 29212 incubated overnight by standard microtiter dilution method
# Type: functional
Peptide text beside a SMILES is read from it.
In this section we review reported MIC values for a set of molecules.

{"Molecule": "CC(C)[C@H](N)C(=O)N[C@@H](CCCCN)C(=O)N[C@H](C(=O)N[C@@H](CCCCN)C(=O)N[C@@H](CS)C(=O)N[C@H](C(=O)N[C@@H](CCCCN)C(=O)N[C@@H](CO)C(=O)NCC(=O)N[C@@H](CS)C(=O)N[C@@H](CCCCN)C(=O)N[C@H](C(=O)N[C@@H](CCCCN)C(=O)N[C@H](C(N)=O)C(C)C)C(C)C)[C@@H](C)O)C(C)C (H-VKVKCTKSGCKVKV-NH2)", "MIC": "> 128 µg/mL"}
{"Molecule": "CC(C)[C@H](N)C(=O)N[C@@H](CCCCN)C(=O)N[C@@H](CS)C(=O)N[C@H](C(=O)N[C@@H](CCCCN)C(=O)N[C@@H](CO)C(=O)NCC(=O)N[C@@H](CS)C(=O)N[C@@H](CCCCN)C(=O)N[C@H](C(N)=O)C(C)C)[C@@H](C)O (H-VKCTKSGCKV-NH2)", "MIC": "32 µg/mL"}
{"Molecule": "CC(C)C[C@H](NC(=O)[C@H](CCCCN)NC(=O)[C@H](CS)NC(=O)CNC(=O)[C@H](CO)NC(=O)[C@H](CCCCN)NC(=O)[C@@H](NC(=O)[C@H](CS)NC(=O)[C@H](CCCCN)NC(=O)[C@@H](N)CC(C)C)[C@@H](C)O)C(N)=O (H-LKCTKSGCKL-NH2)", "MIC": "> 128 µg/mL"}
